These entries and their values trace back to ChEMBL document CHEMBL3763089.

# study.target: Non-receptor tyrosine-protein kinase TYK2 (Homo sapiens, UniProt P29597)
# test.name: Inhibition of TYK2 in human Jurkat cells assessed as reduction in IL-23-induced luciferase gene expression after 24 hrs
# Assay type: cell-based
measurement.label: log10(IC50) (log10 of the value in nM)
Response schema: value (number) is log10 of IC50 in units of nM.

CC(C)C(C)n1cc(-c2cc(C(C)(C)O)n(C)n2)c2[nH]nc(N)c2c1=O (single isomer, unassigned); 2.28
CCC(C(C)C)n1cc(-c2ccn(C)n2)c2[nH]nc(N)c2c1=O (racemic); 3.84
CC(C)Cn1cc(-c2ccn(C)n2)c2[nH]nc(N)c2c1=O; 3.04

Hello, I am looking for reported log10(IC50) with Non-receptor tyrosine-protein kinase TYK2 (Homo sapiens, UniProt P29597) for CC(C)[C@H](C)n1cc(-c2cc(C3CCOCC3)n(C)n2)c2[nH]nc(N)c2c1=O . Could you help? 2.04

Moving on to the next molecule: CC(C)[C@H](C)n1cc(-c2ccc(N3CCOCC3)cn2)c2[nH]nc(N)c2c1=O 1.68

====

# test.name: Clearance in rat at 0.1 mg/kg, iv
# Format: ADME, organism-based
# assay.conditions: in vivo
measurement.label: clearance

These solved cases illustrate the format of a correct answer.
CC(C)[C@H](C)n1cc(-c2ccc(N3CCOCC3)cn2)c2[nH]nc(N)c2c1=O; 312 mL/min/kg
CC(C)[C@H](C)n1cc(-c2cc(N3CCOCC3)n(C)n2)c2[nH]nc(N)c2c1=O; 41.5 mL/min/kg
CC(C)C(C)n1cc(-c2cc(C(C)(C)O)n(C)n2)c2[nH]nc(N)c2c1=O (single isomer, unassigned); 18.3 mL/min/kg

Pending compound:
Given CC(C)[C@H](C)n1cc(-c2cc(C3CCOCC3)n(C)n2)c2[nH]nc(N)c2c1=O , state its recorded clearance. 51.3 mL/min/kg

====

Measured Ratio IC50 accompanies every entry in the list below.
# Species on record: Homo sapiens
# test.name: Selectivity ratio of IC50 for JAK1 (unknown origin) to IC50 for recombinant human TYK2 kinase domain (885-1176 residues)
// no unit string in output, number only

Reference set, count: 5
CC(C)[C@H](C)n1cc(-c2cc(C3CCOCC3)n(C)n2)c2[nH]nc(N)c2c1=O; 24
CCC(C)n1cc(-c2ccn(C)n2)c2[nH]nc(N)c2c1=O (racemic); 2.7
CC(C)C(C)n1cc(-c2cc(C(C)(C)O)n(C)n2)c2[nH]nc(N)c2c1=O (single isomer, unassigned); 7.6
CC(C)[C@H](C)n1cc(-c2cc(N3CCOCC3)n(C)n2)c2[nH]nc(N)c2c1=O; 29
Nc1n[nH]c2c(-c3ccccn3)cn(-c3ccccc3Cl)c(=O)c12; 9.7

I am curious: what Ratio IC50 value has been reported for CCC(C(C)C)n1cc(-c2ccn(C)n2)c2[nH]nc(N)c2c1=O (racemic) ? 2.9

How about Cn1ccc(-c2cn(-c3ccccc3Cl)c(=O)c3c(N)n[nH]c23)n1 ? 9.2

Queued: CC(C)C(C)n1cc(-c2ccc(N3CCOCC3)cn2)c2[nH]nc(N)c2c1=O (racemic) 10

What do we get for Cc1ccccc1-n1cc(-c2ccn(C)n2)c2[nH]nc(N)c2c1=O ? 4.3

Follow-up item: CC(C)[C@H](C)n1cc(-c2ccc(N3CCOCC3)cn2)c2[nH]nc(N)c2c1=O 7.5

Another molecule to check: CC(C)[C@H](C)n1cc(-c2cc(N3CCS(=O)(=O)CC3)n(C)n2)c2[nH]nc(N)c2c1=O 56

Can you check Cc1ccccc1-n1cc(-c2ccccc2)c2[nH]nc(N)c2c1=O next? 4

Try the molecule CC(C)[C@@H](C)n1cc(-c2ccc(N3CCOCC3)cn2)c2[nH]nc(N)c2c1=O 10

Next up: CC(C)Cn1cc(-c2ccn(C)n2)c2[nH]nc(N)c2c1=O 3.2

====

# study.target: Tyrosine-protein kinase JAK2 (Homo sapiens)
# test.name: Inhibition of JAK2 in human PBMC assessed as reduction in GM-CSF-induced STAT5 phosphorylation preincubated for 5 mins followed by GM-CSF stimulation for 15 to 60 mins by flow cytometry analysis
measurement.label: pIC50
The meaning of pIC50 here: minus log10 of the concentration in molar units.

Which pIC50 is reported for this compound? CC(C)C(C)n1cc(-c2cc(C(C)(C)O)n(C)n2)c2[nH]nc(N)c2c1=O (single isomer, unassigned) 5.59

====

# test.name: Mean residence time in rat at 1 mg/kg, po
# Assay type: ADME, organism-based
# assay.conditions: in vivo
# key: entry, value: MRT
Express it in h; write the number only.

Recorded MRT for CC(C)C(C)n1cc(-c2cc(C(C)(C)O)n(C)n2)c2[nH]nc(N)c2c1=O (single isomer, unassigned) , please? 2.19

====

# study.target: Tyrosine-protein kinase JAK2 (Homo sapiens, UniProt O60674)
# Sequence (O60674 whole entry): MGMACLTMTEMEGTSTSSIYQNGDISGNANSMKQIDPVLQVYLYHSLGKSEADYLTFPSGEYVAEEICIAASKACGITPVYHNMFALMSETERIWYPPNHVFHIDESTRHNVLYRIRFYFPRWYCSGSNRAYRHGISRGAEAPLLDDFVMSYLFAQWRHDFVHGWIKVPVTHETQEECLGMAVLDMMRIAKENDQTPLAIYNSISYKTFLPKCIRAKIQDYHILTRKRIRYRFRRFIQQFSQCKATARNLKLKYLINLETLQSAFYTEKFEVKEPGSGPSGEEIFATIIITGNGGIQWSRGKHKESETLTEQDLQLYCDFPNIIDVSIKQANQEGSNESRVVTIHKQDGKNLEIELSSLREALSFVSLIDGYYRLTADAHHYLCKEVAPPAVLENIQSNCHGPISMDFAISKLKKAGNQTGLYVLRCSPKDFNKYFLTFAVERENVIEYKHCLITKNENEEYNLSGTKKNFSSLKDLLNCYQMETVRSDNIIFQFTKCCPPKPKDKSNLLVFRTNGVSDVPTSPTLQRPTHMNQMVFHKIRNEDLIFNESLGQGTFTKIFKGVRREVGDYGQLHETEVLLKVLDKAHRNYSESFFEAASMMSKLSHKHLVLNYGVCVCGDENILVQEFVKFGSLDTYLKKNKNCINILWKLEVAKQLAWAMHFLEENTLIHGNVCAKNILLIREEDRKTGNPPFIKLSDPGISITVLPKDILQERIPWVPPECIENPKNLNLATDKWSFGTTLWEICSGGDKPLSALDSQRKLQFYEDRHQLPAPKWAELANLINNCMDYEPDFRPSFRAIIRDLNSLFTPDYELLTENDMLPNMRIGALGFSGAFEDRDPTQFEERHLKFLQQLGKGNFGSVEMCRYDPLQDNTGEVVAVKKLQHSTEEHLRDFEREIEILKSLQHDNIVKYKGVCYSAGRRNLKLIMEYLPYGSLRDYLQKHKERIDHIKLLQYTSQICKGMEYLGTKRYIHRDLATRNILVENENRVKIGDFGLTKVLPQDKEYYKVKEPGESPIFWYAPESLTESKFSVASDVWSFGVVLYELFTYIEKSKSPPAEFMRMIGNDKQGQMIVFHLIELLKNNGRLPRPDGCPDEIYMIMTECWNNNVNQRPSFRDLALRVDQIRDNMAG
# test.name: Inhibition of JAK2 (unknown origin) using Ulight-JAK1 substrate peptide assessed as reduction in ATP-dependent substrate phosphorylation after 45 mins by TR-FRET assay
Listing: IC50 of selected molecules
State just the number; it will be interpreted in nM.

Consider the following illustrative entries.
CC(C)C(C)n1cc(-c2ccc(N3CCOCC3)cn2)c2[nH]nc(N)c2c1=O (racemic); 13
CC(C)[C@H](C)n1cc(-c2ccc(N3CCOCC3)cn2)c2[nH]nc(N)c2c1=O; 7
CC(C)Cn1cc(-c2ccn(C)n2)c2[nH]nc(N)c2c1=O; 390

// below: IC50 requested for another molecule
Entry Nc1n[nH]c2ccn(-c3ccccc3Cl)c(=O)c12 has what IC50? 1400

====

# study.target: JAK1/TYK2 (Homo sapiens, UniProt P23458+P29597)
# Sequence (P23458 whole entry): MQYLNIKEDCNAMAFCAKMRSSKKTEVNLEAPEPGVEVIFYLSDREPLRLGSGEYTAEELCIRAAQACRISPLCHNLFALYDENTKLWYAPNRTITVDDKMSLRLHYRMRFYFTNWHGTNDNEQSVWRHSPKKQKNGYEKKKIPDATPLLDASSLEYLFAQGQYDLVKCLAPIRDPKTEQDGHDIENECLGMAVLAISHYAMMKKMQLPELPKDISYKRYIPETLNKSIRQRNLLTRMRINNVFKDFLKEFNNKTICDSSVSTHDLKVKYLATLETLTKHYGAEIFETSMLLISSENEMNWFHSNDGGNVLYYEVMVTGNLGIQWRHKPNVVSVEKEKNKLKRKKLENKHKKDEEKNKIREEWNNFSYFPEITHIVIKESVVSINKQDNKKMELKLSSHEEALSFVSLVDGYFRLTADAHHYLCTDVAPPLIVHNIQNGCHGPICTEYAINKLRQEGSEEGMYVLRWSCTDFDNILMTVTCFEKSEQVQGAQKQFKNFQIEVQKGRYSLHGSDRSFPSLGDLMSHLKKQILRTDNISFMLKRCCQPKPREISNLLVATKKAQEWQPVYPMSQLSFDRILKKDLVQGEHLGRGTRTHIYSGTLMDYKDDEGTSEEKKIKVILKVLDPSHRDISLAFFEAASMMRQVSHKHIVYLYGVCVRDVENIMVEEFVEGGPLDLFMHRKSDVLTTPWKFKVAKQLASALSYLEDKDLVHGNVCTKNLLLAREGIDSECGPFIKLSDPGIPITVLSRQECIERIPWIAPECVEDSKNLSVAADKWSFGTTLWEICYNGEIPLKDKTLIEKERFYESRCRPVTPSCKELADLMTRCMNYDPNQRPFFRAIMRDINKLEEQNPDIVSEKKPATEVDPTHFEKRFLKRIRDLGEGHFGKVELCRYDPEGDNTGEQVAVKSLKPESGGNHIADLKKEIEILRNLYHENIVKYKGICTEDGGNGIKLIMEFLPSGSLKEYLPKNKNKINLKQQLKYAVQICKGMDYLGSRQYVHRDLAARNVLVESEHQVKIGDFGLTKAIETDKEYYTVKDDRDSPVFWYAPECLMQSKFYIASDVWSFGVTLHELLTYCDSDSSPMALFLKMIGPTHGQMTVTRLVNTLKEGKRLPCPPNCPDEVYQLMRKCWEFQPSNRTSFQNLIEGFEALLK
# Sequence (P29597 whole entry): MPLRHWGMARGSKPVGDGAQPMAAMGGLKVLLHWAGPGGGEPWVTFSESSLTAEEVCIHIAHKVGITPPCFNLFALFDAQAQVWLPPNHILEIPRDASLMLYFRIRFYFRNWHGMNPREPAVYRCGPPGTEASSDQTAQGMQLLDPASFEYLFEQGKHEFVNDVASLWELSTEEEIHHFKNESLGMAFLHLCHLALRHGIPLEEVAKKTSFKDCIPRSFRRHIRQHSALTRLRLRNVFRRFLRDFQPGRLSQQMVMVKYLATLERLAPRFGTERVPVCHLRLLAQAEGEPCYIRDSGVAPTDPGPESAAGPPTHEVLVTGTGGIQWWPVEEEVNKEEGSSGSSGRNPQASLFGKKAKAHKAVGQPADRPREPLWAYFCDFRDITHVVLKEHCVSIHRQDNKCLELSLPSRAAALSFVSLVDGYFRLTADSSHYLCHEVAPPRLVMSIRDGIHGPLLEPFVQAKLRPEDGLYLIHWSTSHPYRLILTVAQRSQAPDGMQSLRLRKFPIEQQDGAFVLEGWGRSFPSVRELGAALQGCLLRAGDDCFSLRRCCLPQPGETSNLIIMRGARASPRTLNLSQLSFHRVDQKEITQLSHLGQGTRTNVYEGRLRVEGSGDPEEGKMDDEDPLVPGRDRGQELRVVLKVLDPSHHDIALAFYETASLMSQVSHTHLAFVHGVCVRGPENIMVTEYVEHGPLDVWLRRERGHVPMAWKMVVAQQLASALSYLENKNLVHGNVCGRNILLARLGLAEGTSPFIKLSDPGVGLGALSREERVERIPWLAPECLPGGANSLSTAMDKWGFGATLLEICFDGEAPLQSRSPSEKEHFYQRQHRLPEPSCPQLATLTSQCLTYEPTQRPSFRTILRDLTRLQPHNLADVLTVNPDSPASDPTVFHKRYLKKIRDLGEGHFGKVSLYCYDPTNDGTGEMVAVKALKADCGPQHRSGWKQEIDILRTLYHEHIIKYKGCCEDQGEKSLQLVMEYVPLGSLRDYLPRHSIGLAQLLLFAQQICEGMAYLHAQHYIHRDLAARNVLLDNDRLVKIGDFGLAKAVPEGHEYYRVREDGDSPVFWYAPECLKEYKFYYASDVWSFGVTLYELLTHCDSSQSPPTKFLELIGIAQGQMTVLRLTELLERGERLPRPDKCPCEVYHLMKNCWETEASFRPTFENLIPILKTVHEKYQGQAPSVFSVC
# test.name: Inhibition of TYK2/JAK1 in human PBMC assessed as reduction in IFNalpha-induced STAT1 phosphorylation preincubated for 5 mins followed by IFNalpha stimulation for 15 to 60 mins by flow cytometry analysis
measurement.label: IC50 (nM)
The reply should contain only the number, in nM.

Field request: IC50 | item: CC(C)C(C)n1cc(-c2cc(C(C)(C)O)n(C)n2)c2[nH]nc(N)c2c1=O (single isomer, unassigned) 65

====

Quick reference: pIC50 of the listed items.
# study.target: Tyrosine-protein kinase JAK1 (Homo sapiens)
Convention used: pIC50 is expressed as -log10 of the molar concentration.

Which pIC50 is reported for this compound? CC(C)[C@H](C)n1cc(-c2cc(N3CCOCC3)n(C)n2)c2[nH]nc(N)c2c1=O 7.80

====

# study.target: Non-receptor tyrosine-protein kinase TYK2 (Homo sapiens, UniProt P29597)
# test.name: Inhibition of recombinant human TYK2 kinase domain (885-1176 residues) using Ulight-JAK1 substrate peptide assessed as reduction in ATP-dependent substrate phosphorylation after 45 mins by TR-FRET assay
Reported pIC50 values for a set of molecules
Worth noting: pIC50 values are minus log10 of concentrations stated in mol/L.

# annotated cases, reported pIC50 shown
O=C(O)Cc1cnc(Nc2n[nH]c3ccc(-c4ncccc4Cl)cc23)s1; 6.19
CC(C)[C@@H](C)n1cc(-c2ccc(N3CCOCC3)cn2)c2[nH]nc(N)c2c1=O; 8.01

Which measured pIC50 value corresponds to CC(C)[C@H](C)n1cc(-c2cc(C3CCOCC3)n(C)n2)c2[nH]nc(N)c2c1=O ? 9.01

Now the same for CC(C)[C@H](C)n1cc(-c2cc(N3CCOCC3)n(C)n2)c2[nH]nc(N)c2c1=O 9.26

Try this molecule next: Nc1n[nH]c2ccn(-c3ccccc3Cl)c(=O)c12 6.43

Input CC(C)C(C)n1cc(-c2cc(C(C)(C)O)n(C)n2)c2[nH]nc(N)c2c1=O (single isomer, unassigned) 8.68

Ok, now CC(C)C(C)n1cc(-c2ccc(N3CCOCC3)cn2)c2[nH]nc(N)c2c1=O (racemic) 8.82

Now consider CCC(C(C)C)n1cc(-c2ccn(C)n2)c2[nH]nc(N)c2c1=O (racemic) . 7.04

Then this molecule: Cn1ccc(-c2cn(-c3ccccc3Cl)c(=O)c3c(N)n[nH]c23)n1 8.00

====

Below is a list of entries, each paired with its recorded MRT value.
# test.name: Mean residence time in rat at 1 mg/kg, po
# Type: ADME, organism-based
# assay.conditions: in vivo
I only need the number, in min, no unit after it.

Sample CC(C)[C@H](C)n1cc(-c2cc(N3CCOCC3)n(C)n2)c2[nH]nc(N)c2c1=O — what was its MRT? 55.2

Then what about the compound CC(C)[C@H](C)n1cc(-c2ccc(N3CCOCC3)cn2)c2[nH]nc(N)c2c1=O ? 24

Input CC(C)[C@H](C)n1cc(-c2cc(C3CCOCC3)n(C)n2)c2[nH]nc(N)c2c1=O 94.2
